Test system: RARa:RXR (NR concentration 270 nM, RXRa partner concentration 90 nM)
protocol-notes: PBM binding z-score (relative to random genomic background probes); higher = stronger binding; sequences stand for … in GC…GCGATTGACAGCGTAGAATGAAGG
Param threshold (2) applies to PBM binding z-score; output Condition met when value >= threshold, Condition not met when value < threshold.

[[record]]
sequence_record = "CGTCCAAGCTCAGCAGGTCAGTGAAAGCGACGTG"
discrete_label = "Condition not met"

[[record]]
sequence_record = "TCATATAGGTTAAGGTGAAAGTCGAACGATATGA"
discrete_label = "Condition met"

[[record]]
sequence_record = "TCTAGTTGGTCGCGGAGGTCACACACGACGGGTA"
discrete_label = "Condition met"


Check this sequence for PBM binding z-score at or above 2: CGAACTAGCTCAAGGACAGTGAATCTCCGCACGC
Condition not met

Assess whether reported PBM binding z-score for CTCCAAAGGTCGGTTGAGGTGAGTATACGGATAA sits at 2 or higher.
Condition met

Is the recorded value of PBM binding z-score equal to or greater than 2 for this sequence? GCATACGGGTCAAAGGTTATAGCATGAATAGAAT
Condition met
